Target: T1, human EphA3 (Homo sapiens, UniProt P29320)
T1 construct: a protein of the extracellular region of each human Eph receptor fused with the SEAP protein and the His tag; made in house; host or cells: Expi293F cells (culture supernatant)
T1 sequence (P29320 21-541 limits assumed): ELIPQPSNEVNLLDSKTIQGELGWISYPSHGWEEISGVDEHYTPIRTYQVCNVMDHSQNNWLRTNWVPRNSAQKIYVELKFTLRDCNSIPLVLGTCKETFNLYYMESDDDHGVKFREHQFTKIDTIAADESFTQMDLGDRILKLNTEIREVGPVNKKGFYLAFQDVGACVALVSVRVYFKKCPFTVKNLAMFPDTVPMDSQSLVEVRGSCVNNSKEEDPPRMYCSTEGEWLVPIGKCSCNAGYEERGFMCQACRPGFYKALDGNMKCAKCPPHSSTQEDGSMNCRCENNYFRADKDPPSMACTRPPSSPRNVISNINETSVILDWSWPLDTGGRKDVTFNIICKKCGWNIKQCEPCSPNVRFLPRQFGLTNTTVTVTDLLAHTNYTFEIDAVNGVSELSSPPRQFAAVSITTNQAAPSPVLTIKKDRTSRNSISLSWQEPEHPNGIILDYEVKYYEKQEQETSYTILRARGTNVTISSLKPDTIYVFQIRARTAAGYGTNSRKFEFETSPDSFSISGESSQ
Experiment: Selectivity ELISA of humanized antibodies for human Eph receptor
Assay type: binding
Details: coated protein 1 nM
# note: exactly 6% is not below, so it is NO; use YES for hEphA3-SEAP-: absorbance at 450 nm, percentage with respect to hEphA4-SEAP-His as 100% strictly under it

Incoming: Please let me know if 134 (antibody, V domains shown, synthetic humanized antibody heavy chain variable region sequence; synthetic humanized antibody light chain variable region sequence) VH: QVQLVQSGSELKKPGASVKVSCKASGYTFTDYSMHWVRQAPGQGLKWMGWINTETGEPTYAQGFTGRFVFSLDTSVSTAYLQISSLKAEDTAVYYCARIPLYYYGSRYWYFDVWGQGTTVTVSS VL: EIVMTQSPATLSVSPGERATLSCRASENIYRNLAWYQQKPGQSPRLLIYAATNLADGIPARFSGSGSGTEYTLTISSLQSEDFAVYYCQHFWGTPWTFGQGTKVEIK shows hEphA3-SEAP-: absorbance at 450 nm, percentage with respect to hEphA4-SEAP-His as 100% below 6%.
Outgoing: YES

Incoming: Please let me know if 94 (antibody, V domains shown, constant regions without entry; synthetic humanized antibody light chain variable region sequence; synthetic humanized antibody heavy chain variable region sequence) VL: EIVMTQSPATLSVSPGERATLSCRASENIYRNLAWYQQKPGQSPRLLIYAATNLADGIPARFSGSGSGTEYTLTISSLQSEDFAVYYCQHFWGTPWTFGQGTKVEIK VH: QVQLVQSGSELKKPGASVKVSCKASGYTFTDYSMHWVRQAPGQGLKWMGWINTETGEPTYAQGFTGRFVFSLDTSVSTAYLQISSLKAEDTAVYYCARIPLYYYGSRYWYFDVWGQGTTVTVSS shows hEphA3-SEAP-: absorbance at 450 nm, percentage with respect to hEphA4-SEAP-His as 100% below 6%.
Outgoing: NO

Incoming: Please let me know if 76 (antibody, V domains shown, synthetic humanized antibody heavy chain variable region sequence; synthetic humanized antibody light chain variable region sequence) VH: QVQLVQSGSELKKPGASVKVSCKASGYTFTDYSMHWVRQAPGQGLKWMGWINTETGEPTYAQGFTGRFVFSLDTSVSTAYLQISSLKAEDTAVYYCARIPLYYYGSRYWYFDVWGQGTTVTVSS VL: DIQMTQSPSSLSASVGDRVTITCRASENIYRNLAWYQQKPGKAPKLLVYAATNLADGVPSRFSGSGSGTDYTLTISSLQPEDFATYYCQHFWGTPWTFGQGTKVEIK shows hEphA3-SEAP-: absorbance at 450 nm, percentage with respect to hEphA4-SEAP-His as 100% below 6%.
Outgoing: YES

Incoming: Please let me know if 84 (antibody, V domains shown, constant regions without entry; synthetic humanized antibody light chain variable region sequence; synthetic humanized antibody heavy chain variable region sequence) VL: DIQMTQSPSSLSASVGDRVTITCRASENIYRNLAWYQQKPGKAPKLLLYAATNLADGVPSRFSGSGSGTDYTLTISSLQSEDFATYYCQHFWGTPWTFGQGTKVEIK VH: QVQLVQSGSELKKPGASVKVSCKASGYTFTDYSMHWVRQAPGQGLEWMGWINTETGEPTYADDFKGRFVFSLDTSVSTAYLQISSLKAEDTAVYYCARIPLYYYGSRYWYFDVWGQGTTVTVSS shows hEphA3-SEAP-: absorbance at 450 nm, percentage with respect to hEphA4-SEAP-His as 100% below 6%.
Outgoing: YES

Incoming: Please let me know if 92 (antibody, V domains shown, constant regions without entry; synthetic humanized antibody light chain variable region sequence; synthetic humanized antibody heavy chain variable region sequence) VL: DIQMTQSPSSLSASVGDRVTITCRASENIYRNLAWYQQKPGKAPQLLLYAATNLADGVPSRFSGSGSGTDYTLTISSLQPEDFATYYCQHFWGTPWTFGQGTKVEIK VH: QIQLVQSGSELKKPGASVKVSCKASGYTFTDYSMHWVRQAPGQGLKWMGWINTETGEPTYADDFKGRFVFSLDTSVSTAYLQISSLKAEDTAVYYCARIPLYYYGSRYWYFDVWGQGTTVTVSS shows hEphA3-SEAP-: absorbance at 450 nm, percentage with respect to hEphA4-SEAP-His as 100% below 6%.
Outgoing: NO

Incoming: Please let me know if 133 (antibody, V domains shown, synthetic humanized antibody heavy chain variable region sequence; synthetic humanized antibody light chain variable region sequence) VH: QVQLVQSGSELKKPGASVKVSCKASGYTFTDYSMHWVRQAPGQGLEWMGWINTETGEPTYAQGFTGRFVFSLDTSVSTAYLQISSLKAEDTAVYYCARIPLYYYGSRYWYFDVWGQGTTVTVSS VL: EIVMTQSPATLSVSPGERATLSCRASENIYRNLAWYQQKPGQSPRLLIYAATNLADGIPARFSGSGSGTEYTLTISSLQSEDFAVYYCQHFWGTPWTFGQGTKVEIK shows hEphA3-SEAP-: absorbance at 450 nm, percentage with respect to hEphA4-SEAP-His as 100% below 6%.
Outgoing: YES

Incoming: Please let me know if 73 (antibody, V domains shown, synthetic humanized antibody heavy chain variable region sequence; synthetic humanized antibody light chain variable region sequence) VH: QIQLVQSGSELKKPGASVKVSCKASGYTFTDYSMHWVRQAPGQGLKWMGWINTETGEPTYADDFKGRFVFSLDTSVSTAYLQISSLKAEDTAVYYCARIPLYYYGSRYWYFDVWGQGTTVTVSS VL: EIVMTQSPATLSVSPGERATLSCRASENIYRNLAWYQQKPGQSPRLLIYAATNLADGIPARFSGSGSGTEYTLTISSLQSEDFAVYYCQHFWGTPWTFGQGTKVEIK shows hEphA3-SEAP-: absorbance at 450 nm, percentage with respect to hEphA4-SEAP-His as 100% below 6%.
Outgoing: YES
